- test.system: CV S-protein construct 6 trimer TP31001F (SARS-CoV-2, UniProt P0DTC2 14-1208)
- method.notes: SPR
assay.endpoint: pKd
pKd here: minus log base 10 of the concentration, concentration in moles per litre.

Use these answered entries as a reference point.
variant 6-24 (Fc fusion) VHH: EVQLVESGGGLVQPGGSLRLSCAASGFTLDYYAMGWFRQAPGKEREFVAAINWSGDNTHYADSVKGRFTISADNSKNTAYLQMNSLKPEDTAVYYCARAPFYCTTTKCQDNYYYMDVWGQGTLVTVSS
9.70
variant 6-26 (Fc fusion) VHH: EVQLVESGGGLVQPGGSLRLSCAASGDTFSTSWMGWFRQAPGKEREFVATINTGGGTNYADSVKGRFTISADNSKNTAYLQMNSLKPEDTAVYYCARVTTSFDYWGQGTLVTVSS
10.15
variant 6-52 (Fc fusion) VHH: EVQLVESGGGLVQPGGSLRLSCAASGDTYGSYWMGWFRQAPGKEREVVAAITSGGSTVYADSVKGRFTISADNSKNTAYLQMNSLKPEDTAVYYCARVDSRFDYWGQGTLVTVSS
8.96

Task: What does the record list as pKd for variant 6-73 (Fc fusion) VHH: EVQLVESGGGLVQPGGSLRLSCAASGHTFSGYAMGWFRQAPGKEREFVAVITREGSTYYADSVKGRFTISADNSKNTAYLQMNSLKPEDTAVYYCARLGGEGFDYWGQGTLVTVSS ?
Result: 9.28

Task: Try variant 6-76 (Fc fusion) VHH: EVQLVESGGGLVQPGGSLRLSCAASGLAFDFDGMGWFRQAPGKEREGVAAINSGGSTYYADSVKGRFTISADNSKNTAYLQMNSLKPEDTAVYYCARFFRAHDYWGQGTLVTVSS next.
Result: 8.75

Task: Moving on to variant 6-13 (Fc fusion) VHH: EVQLVESGGGLVQPGGSLRLSCAASGLTFNDYAMGWFRQAPGKEREFVAHIPRSTYSPYYADSVKGRFTISADNSKNTAYLQMNSLKPEDTAVYYCAFLVGPQGVDHGAFDVWGQGTLVTVSS
Result: 9.22

Task: Now the same for variant 6-2 (Fc fusion) VHH: EVQLVESGGGLVQPGGSLRLSCAASGFTMSSSWMGWFRQAPGKEREFVTVISGVGTSYADSVKGRFTISADNSKNTAYLQMNSLKPEDTAVYYCARGPDSSGYGFDYWGQGTLVTVSS
Result: 8.92

Task: Now try variant 6-58 (Fc fusion) VHH: EVQLVESGGGLVQPGGSLRLSCAASGRAVSTYAMGWFRQAPGKEREFVAAISGSENVTSYADSVKGRFTISADNSKNTAYLQMNSLKPEDTAVYYCLSVTGDTEDYGVFDTWGQGTLVTVSS .
Result: 9.00
